# PBM binding z-score listing for each entry below
Test system: RARg:RXRa (NR concentration 270 nM, RXRa partner concentration 90 nM)
Test: PBM binding z-score (relative to random genomic background probes); higher = stronger binding; sequences stand for … in GC…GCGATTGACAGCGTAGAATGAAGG
quantity_kind: PBM binding z-score

[[record]]
sequence_chain = "TCTAGTTGGTCAAATGTCACACACTCGAAATGCG"
quantity_kind = "PBM binding z-score"
experimental_result = 1.73

[[record]]
sequence_chain = "GGAACGAGGGCAAATTGATAGCAGAGTTTGATGG"
quantity_kind = "PBM binding z-score"
experimental_result = 1.48

[[record]]
sequence_chain = "AGAATGAGGATATACGTAGATCAGGGAAGAAAGT"
quantity_kind = "PBM binding z-score"
experimental_result = 0.0404

[[record]]
sequence_chain = "ACAGACAGGTGAGTGAAGGTACCTCAGCTGGACG"
quantity_kind = "PBM binding z-score"
experimental_result = -0.0299

[[record]]
sequence_chain = "TAGCCTAGGTCAGATCCGGCCAGTATACGCTATA"
quantity_kind = "PBM binding z-score"
experimental_result = 2.41

[[record]]
sequence_chain = "CTACCAAGGTGAACAAGGTCGTTGTTTACTATTC"
quantity_kind = "PBM binding z-score"
experimental_result = 1.78

[[record]]
sequence_chain = "TAGGCTAGGTCATGCGGGCCAGTATAGTGTCGGC"
quantity_kind = "PBM binding z-score"
experimental_result = 3.73

[[record]]
sequence_chain = "TGAATGAGGTTATAAGGTCAGGGAACGTTGCAAA"
quantity_kind = "PBM binding z-score"
experimental_result = 5.81

[[record]]
sequence_chain = "ACTATTAGTTGAGACGAGGGCAACTGATAGGTTG"
quantity_kind = "PBM binding z-score"
experimental_result = 0.865

[[record]]
sequence_chain = "CCTTACGGGTCAAGAGGTTATAGCACGACGAGCG"
quantity_kind = "PBM binding z-score"
experimental_result = 6.11

[[record]]
sequence_chain = "AGAACGAGGGCAATGAGTTGATAGCACGGGTGGC"
quantity_kind = "PBM binding z-score"
experimental_result = 0.952

[[record]]
sequence_chain = "ATACCAAGGTGATGGTGAGGTCGTTGATACTAAC"
quantity_kind = "PBM binding z-score"
experimental_result = 1.84

[[record]]
sequence_chain = "CAAACTTGGTCACGAAAGGTCAAAGTCGAATGAC"
quantity_kind = "PBM binding z-score"
experimental_result = 6.15

[[record]]
sequence_chain = "TCTAGCGGGCCAGAGGGTCACTCAAGAGGTACGG"
quantity_kind = "PBM binding z-score"
experimental_result = 2.61

[[record]]
sequence_chain = "TTACCAAGGTGAAGGCCGTTGATCCCTCTGTAGA"
quantity_kind = "PBM binding z-score"
experimental_result = 0.161

[[record]]
sequence_chain = "ATCGAAAGGTCGACGAGGTGAGTATCCACCGTTT"
quantity_kind = "PBM binding z-score"
experimental_result = 4.16

[[record]]
sequence_chain = "CGAACTAGGTCACCGGAAGGTCAAAGTCCGCATG"
quantity_kind = "PBM binding z-score"
experimental_result = 8.27

[[record]]
sequence_chain = "TGAGTGAGGTTATAAGATCAGGGAACGTTGCAAA"
quantity_kind = "PBM binding z-score"
experimental_result = 1.43

[[record]]
sequence_chain = "TCTATTAGCTGATTAGGGCAACCGAAACAGCGGA"
quantity_kind = "PBM binding z-score"
experimental_result = 0.212

[[record]]
sequence_chain = "ATCTCTAGGTAAAGTTCAGTGCAAGATCGATAGA"
quantity_kind = "PBM binding z-score"
experimental_result = 2.49

[[record]]
sequence_chain = "GGAACGAGGGCATAGTTGATAGCATCTGTCGACG"
quantity_kind = "PBM binding z-score"
experimental_result = 0.949

[[record]]
sequence_chain = "CTACCAAGGTGAACAAGGTCGTTGGTTACTATTC"
quantity_kind = "PBM binding z-score"
experimental_result = 1.79

[[record]]
sequence_chain = "ATCTATAGGTAACAAGTTCAGTGAAAGAGAGGAC"
quantity_kind = "PBM binding z-score"
experimental_result = 1.61

[[record]]
sequence_chain = "TCATATAGGTAAAAGTGAAAGTCGAACGATATGA"
quantity_kind = "PBM binding z-score"
experimental_result = 0.288

[[record]]
sequence_chain = "GCAGACAGGGGAAACGCAGGTAACTCAGGGTGGC"
quantity_kind = "PBM binding z-score"
experimental_result = -0.368

[[record]]
sequence_chain = "ATCTCTTGGTAACAAGTTCAGTGAAAGAGAGGAC"
quantity_kind = "PBM binding z-score"
experimental_result = 0.629

[[record]]
sequence_chain = "CCTAGCTGGTCAAGGTCACACACGCTATAGGTAC"
quantity_kind = "PBM binding z-score"
experimental_result = 4.56

[[record]]
sequence_chain = "ATCTCTAGGTAAAAGTTCTGTGAATCCCGAGGAT"
quantity_kind = "PBM binding z-score"
experimental_result = 0.293

[[record]]
sequence_chain = "CCTATTAGTTGACCATAAGGCCAACCGAAGCTCG"
quantity_kind = "PBM binding z-score"
experimental_result = 0.941

[[record]]
sequence_chain = "TATATTAGTTGATTAGGGCAACCGAAACAGCGGA"
quantity_kind = "PBM binding z-score"
experimental_result = 0.789

[[record]]
sequence_chain = "TCTTGTAGATCAATAGAGGTTAATAAAGTGCGCT"
quantity_kind = "PBM binding z-score"
experimental_result = 0.715

[[record]]
sequence_chain = "AGAATGAGGTTATACTTAGATCAGGGAAGAAAGT"
quantity_kind = "PBM binding z-score"
experimental_result = 1.56

[[record]]
sequence_chain = "TTACCAAGGTGAGCTGAGGTCTTTGATCCAACTC"
quantity_kind = "PBM binding z-score"
experimental_result = 0.335

[[record]]
sequence_chain = "CCTATTAGTTGACCATAAGCGCAACCGAAGCTCG"
quantity_kind = "PBM binding z-score"
experimental_result = 0.621

[[record]]
sequence_chain = "CATACAGGGTCAGCTAGGCCATAGTAGGGACGGC"
quantity_kind = "PBM binding z-score"
experimental_result = 4.35

[[record]]
sequence_chain = "CGTCAAAGTTCAACTAAGGTATCGTAAAGCACGC"
quantity_kind = "PBM binding z-score"
experimental_result = 5.92

[[record]]
sequence_chain = "GATACAGGGTCAAGGCCTGAGTACGCGTATTGAT"
quantity_kind = "PBM binding z-score"
experimental_result = 5.4

[[record]]
sequence_chain = "CCTCGGAGGACAAGAGGAGGTCAGAGCTGCCAGA"
quantity_kind = "PBM binding z-score"
experimental_result = 2.87

[[record]]
sequence_chain = "CCTACTGCGCCAAAGGTCATTGATTCCAATGCTC"
quantity_kind = "PBM binding z-score"
experimental_result = 5.4

[[record]]
sequence_chain = "CGTCCAAGGTCATAGGTGGTCAGTGAAGACAGAT"
quantity_kind = "PBM binding z-score"
experimental_result = 5.65


---

Test system: VDR homodimer (NR concentration 270 nM)
Experiment: PBM binding z-score (relative to random genomic background probes); higher = stronger binding; sequences stand for … in GC…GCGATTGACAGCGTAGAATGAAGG
Mark MET for reported PBM binding z-score of 0.2 or greater; mark NOT MET for anything smaller.

[[record]]
sequence_chain = "TCTTGTAGATCAAGCAGTTTAAGAAAGCCTGAGT"
label_value = "NOT MET"

[[record]]
sequence_chain = "GGAACGAGGGTAAGTTGATAGCAGAGTTTGATGG"
label_value = "MET"

[[record]]
sequence_chain = "AGAACGAGGTTACCAAAGATCAGGGAAACGCTTG"
label_value = "MET"

[[record]]
sequence_chain = "GGAACGAGGGCAAAGTTGATTGCATCTGTCGACG"
label_value = "MET"

[[record]]
sequence_chain = "TCTTGTAGATCAGCAGGGTAAGAAAGCTGGCCAA"
label_value = "NOT MET"

[[record]]
sequence_chain = "GTACCAACGTGAATAGGTCGTTGATGAGTAGGCG"
label_value = "NOT MET"

